Could you please report measured Kd for the items listed next?
biological target: T1, human TNF-alpha (human, UniProt P01375 77-233); test: Biacore (SPR)
T1 construct: Immobilised on a CM5 chip or coated on ELISA plates
T1 sequence (P01375 77-233 limits assumed): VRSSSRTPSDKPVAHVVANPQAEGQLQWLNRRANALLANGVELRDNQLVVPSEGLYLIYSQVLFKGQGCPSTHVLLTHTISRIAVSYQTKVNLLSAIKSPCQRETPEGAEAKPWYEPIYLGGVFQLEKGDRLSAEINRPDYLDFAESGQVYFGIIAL
One number for each entry, in nM.

These solved cases illustrate the format of a correct answer.
| binder | Kd [nM] |
| --- | --- |
| VL18-3L-VL11 DI #3 (other, also called Variant 3) ELVLTQQPASVEAAPGGTVTIKCQASQSISSYLAWYQQKPGHPPKLLIYKVSTRASGVSSRFSGSGSGTEFTLTISDLKSADAATYYCQSTYLGGTYVGGAFGGGTELEIKSGGGGSGGGGSGGGGSSGELVMTQQPASVEAAPGGTVTIKCQASQSISSYLAWYQQKPGQPPKLLIYRVSTRASGVSSRFSGSGSGTEFTLTISDLKSADAATYYCQSTYVNRGSVAAFGGGTKVVVKYPYDVPDYA | 0.7 |
| VL18-3L-VL11 DI3-PEP DI #8 (other, De-immunized dimer DI #3 fused to de-immunized PEP; also called Variant 8) ELVLTQQPASVEAAPGGTVTIKCQASQSISSYLAWYQQKPGHPPKLLIYKVSTRASGVSSRFSGSGSGTEFTLTISDLKSADAATYYCQSTYLGGTYVGGAFGGGTELEIKSGGGGSGGGGSGGGGSSGELVMTQQPASVEAAPGGTVTIKCQASQSISSYLAWYQQKPGQPPKLLIYRVSTRASGVSSRFSGSGSGTEFTLTISDLKSADAATYYCQSTYVNRGSVAAFGGGTKVVVKSGGGGSGGGGSGGGGSSGDITGAALLEAKDAAINELKQYGISDYYVHLINKADTVEGVNALKDEILSALPYPYDVPDYA | 0.6 |

Proceeding to the next binder to report its Kd.
Field request: Kd | item: VL18-3L-VL11 DI5-PEP DI #9 (other, De-immunized dimer DI #5 fused to de-immunized PEP; also called Variant 9) ELVLTQQPASVEAAPGGTVTIKCQASQSISSYLAWYQQKPGHPPKLLIYKASTLASGVSSRFSGSGSGTEFTLTISDLKSADAATYYCQSTYLGGTYVGGAFGGGTELEIKSGGGGSGGGGSGGGGSSGELVMTQQPASVEAAPGGTVTIKCQASQSISSYLAWYQQKPGQPPKLLIYRASTLASGVSSRFSGSGSGTEFTLTISDLKSADAATYYCQSTYVNRGSVAAFGGGTKVVVKSGGGGSGGGGSGGGGSSGDITGAALLEAKDAAINELKQYGISDYYVHLINKADTVEGVNALKDEILSALPYPYDVPDYA
0.4
